Examples of molecules with documented inhibition at 3 µM follow.
Target: γ-secretase (Homo sapiens, UniProt P49768)
Assay: Screening for γ-secretase-modulating activity, Aβ42 in SKNBE2 cells carrying APP 695 wild type
Assay type: cell-based
Details: read-out: WTAPP SKNBE2 Aβ 42% Inhibition at 3 μM
Numeric answer only, unit % assumed.

Use these answered entries as a reference point.
- MOLECULE: "CC(C)CC(C(=O)O)c1cc(-c2ccc(C(F)(F)F)cc2)cc(-c2ccc(F)cc2F)c1 (stereo not drawn)"
  UNIT STRING: "%"
  inhibition at 3 µM: 53
- MOLECULE: "CC(C)CC(C(=O)O)c1cc(-c2cc(F)cc(F)c2)cc(-c2cc(F)cc(F)c2)c1 (stereo not drawn)"
  UNIT STRING: "%"
  inhibition at 3 µM: 53
- MOLECULE: "CC(C)CC(C(=O)O)c1cc(-c2cccc(C#N)c2)cc(-c2cc(C(F)(F)F)cc(C(F)(F)F)c2)c1 (stereo not drawn)"
  UNIT STRING: "%"
  inhibition at 3 µM: 73
- MOLECULE: "CC(C)CC(C(=O)O)c1cc(-c2ccc(C#N)cc2)cc(-c2cc(C(F)(F)F)cc(C(F)(F)F)c2)c1 (stereo not drawn)"
  UNIT STRING: "%"
  inhibition at 3 µM: 84

Please give measured inhibition at 3 µM of the following entry: CC(C)CC(C(=O)O)c1cc(-c2ccc(C(F)(F)F)cc2)cc(-c2cc(Cl)ccc2Cl)c1 (stereo not drawn) 84

State its inhibition at 3 µM for this molecule: CC(C)CC(C(=O)O)c1cc(-c2cc(F)cc(F)c2)cc(-c2cc(F)cc(C(F)(F)F)c2)c1 (stereo not drawn) 80

Fill in reported inhibition at 3 µM for this entry: C=C(C)CC(C(=O)O)c1cc(-c2ccc(C(F)(F)F)cc2)cc(-c2ccc(C(F)(F)F)cc2)c1 (stereo not drawn) 82

Give a short answer stating reported inhibition at 3 µM for CC(C)CC(C(=O)O)c1cc(-c2ccc(C(F)(F)F)cc2)cc(-c2cccc(N(C)C)c2)c1 (stereo not drawn) . -17

Write down inhibition at 3 µM measured for item CC(C)CC(C(=O)O)c1cc(-c2ccc(C(F)(F)F)cc2)cc(-c2ccccc2F)c1 (stereo not drawn) -1

###

Below, each of the molecules is paired with its reported Rat Efficacy % Lowering Aβ 42 value.
Test system: Aβ42
Test: In vivo Aβ42 lowering, rat
Conditions: oral dose 30 mpk at 4 hr time point
Reply with just the number (in %).

- MOLECULE: "CC(C)CC(C(=O)O)c1cc(-c2ccc(C(F)(F)F)cc2)cc(-c2cc(F)c(F)c(F)c2)c1 (stereo not shown)"
  SYSTEM NAME: "Aβ42"
  UNIT STRING: "%"
  Rat Efficacy % Lowering Aβ 42: 20

Read the entry `CC(C)C[C@H](C(=O)O)c1cc(-c2ccc(C(F)(F)F)cc2)cc(-c2ccc(Cl)c(F)c2)c1` and write its reported Rat Efficacy % Lowering Aβ 42. 28

Quickly give me recorded Rat Efficacy % Lowering Aβ 42 for `CC(C)C[C@@H](C(=O)O)c1cc(-c2ccc(C(F)(F)F)cc2)cc(-c2ccc(C(F)(F)F)cc2)c1` 27

Give Rat Efficacy % Lowering Aβ 42 for the following molecule: CC(C)CC(C(=O)O)c1cc(-c2ccc(C(F)(F)F)cc2)cc(-c2ccc(C(F)(F)F)cc2)c1 (stereo not shown) 29

###

Rat Efficacy % Lowering Aβ 42 values for the compounds below.
Tested on: Aβ42
Assay: In vivo Aβ42 lowering, rat
Details: oral dose 30 mpk at 4 hr time point
Respond numerically; units are % and should not be typed.

// below: answered compounds
- COMPOUND: "CC(C)C[C@@H](C(=O)O)c1cc(-c2ccc(C(F)(F)F)cc2)cc(-c2cc(C(F)(F)F)cc(C(F)(F)F)c2)c1 [Compound 44]"
  Rat Efficacy % Lowering Aβ 42, %: "−10"
- COMPOUND: "CC(C)C[C@H](C(=O)O)c1cc(-c2ccc(C(F)(F)F)cc2)cc(-c2ccc(C(F)(F)F)cc2)c1 [Compound 40]"
  Rat Efficacy % Lowering Aβ 42, %: 40

Shifting focus to the compound that follows.
Find the measured Rat Efficacy % Lowering Aβ 42 of CC(C)CC(C(=O)O)c1cc(-c2ccc(OC(F)(F)F)cc2)cc(-c2ccc(C(F)(F)F)cc2)c1 (stereo not drawn) [Compound 20] and report it. 20

###

Target: γ-secretase (Homo sapiens, UniProt P49768)
Experiment: Screening for γ-secretase-modulating activity, Aβ42 in SKNBE2 cells carrying APP 695 wild type
Format: cell-based
Conditions: read-out: WTAPP SKNBE2 Aβ 42% Inhibition at 3 μM
MEASUREMENT LABEL: inhibition at 3 µM (%)
Use % as the unit, but write only the number.

- COMPOUND: "CC(=O)c1ccc(-c2cc(-c3ccc(C(F)(F)F)cc3)cc(C(CC(C)C)C(=O)O)c2)cc1 (stereo not shown)"
  SYSTEM NAME: "γ-secretase (Homo sapiens, UniProt P49768)"
  UNIT STRING: "%"
  inhibition at 3 µM: 18
- COMPOUND: "CC(C)CC(C(=O)O)c1cc(-c2ccc(C(F)(F)F)cc2)cc(-c2ccc(S(C)(=O)=O)cc2)c1 (stereo not shown)"
  SYSTEM NAME: "γ-secretase (Homo sapiens, UniProt P49768)"
  UNIT STRING: "%"
  inhibition at 3 µM: 46
- COMPOUND: "CC(C)CC(C(=O)O)c1cc(-c2ccc(C(F)(F)F)cc2)cc(-c2cccc(C(F)(F)F)c2)c1 (stereo not shown)"
  SYSTEM NAME: "γ-secretase (Homo sapiens, UniProt P49768)"
  UNIT STRING: "%"
  inhibition at 3 µM: 86
- COMPOUND: "CC(C)CC(C(=O)O)c1cc(-c2ccc(C(F)(F)F)cc2)cc(-c2cc(F)cc(C#N)c2)c1 (stereo not shown)"
  SYSTEM NAME: "γ-secretase (Homo sapiens, UniProt P49768)"
  UNIT STRING: "%"
  inhibition at 3 µM: 0
- COMPOUND: "COc1ccc(-c2cc(-c3ccc(C(F)(F)F)cc3)cc(C(CC(C)C)C(=O)O)c2)cc1 (stereo not shown)"
  SYSTEM NAME: "γ-secretase (Homo sapiens, UniProt P49768)"
  UNIT STRING: "%"
  inhibition at 3 µM: 53
- COMPOUND: "CC(C)CC(C(=O)O)c1cc(-c2ccc(C(F)(F)F)cc2)cc(-c2ccccc2C(F)(F)F)c1 (stereo not shown)"
  SYSTEM NAME: "γ-secretase (Homo sapiens, UniProt P49768)"
  UNIT STRING: "%"
  inhibition at 3 µM: 65

Let us move to another entry and its inhibition at 3 µM.
Return value of inhibition at 3 µM for input Cc1ccc(-c2cc(-c3ccc(C(F)(F)F)cc3)cc(C(CC(C)C)C(=O)O)c2)cc1 (stereo not shown) , no commentary. 68
